# System: HeLa Kyoto
# assay-remarks: thermal stability score vs G1/S (z-score of summed log2 fold changes over temperatures); higher = more thermally stable than in G1/S
# run-conditions: cell cycle stage: early G1 (4.5 h after nocodazole release)
reported-property: thermal stability score
When you answer, write just the number.

These recorded examples may help you get a feel for the data.
substance	measured
MSSGIHVALVTGGNKGIGLAIVRDLCRLFSGDVVLTARDVTRGQAAVQQLQAEGLSPRFHQLDIDDLQSIRALRDFLRKEYGGLDVLVNNAGIAFKVADPTPFHIQAEVTMKTNFFGTRDVCTELLPLIKPQGRVVNVSSIMSVRALKSCSPELQQKFRSETITEEELVGLMNKFVEDTKKGVHQKEGWPSSAYGVTKIGVTVLSRIHARKLSEQRKGDKILLNACCPGWVRTDMAGPKATKSPEEGAETPVYLALLPPDAEGPHGQFVSEKRVEQW [CBR1]	-1.36
MSRRYDSRTTIFSPEGRLYQVEYAMEAIGHAGTCLGILANDGVLLAAERRNIHKLLDEVFFSEKIYKLNEDMACSVAGITSDANVLTNELRLIAQRYLLQYQEPIPCEQLVTALCDIKQAYTQFGGKRPFGVSLLYIGWDKHYGFQLYQSDPSGNYGGWKATCIGNNSAAAVSMLKQDYKEGEMTLKSALALAIKVLNKTMDVSKLSAEKVEIATLTRENGKTVIRVLKQKEVEQLIKKHEEEEAKAEREKKEKEQKEKDK [PSMA4]	-0.647

Read the next record carefully.
Request: I would be grateful if you could share the reported thermal stability score for `ARFGAP2` .
Response: -0.318

----------
In this section we review reported solubility change mitosis (log2) values for a set of sequences.
# Test system: HeLa Kyoto
# assay-remarks: solubility change mitosis vs G1/S (difference of NP-40 vs SDS log2 ratios) (log2 ratio difference); higher = more soluble in mitosis

macromolecule-sequence	solubility change mitosis (log2)
MLGLLVALLALGLAVFALLDVWYLVRLPCAVLRARLLQPRVRDLLAEQRFPGRVLPSDLDLLLHMNNARYLREADFARVAHLTRCGVLGALRELRAHTVLAASCARHRRSLRLLEPFEVRTRLLGWDDRAFYLEARFVSLRDGFVCALLRFRQHLLGTSPERVVQHLCQRRVEPPELPADLQHWISYNEASSQLLRMESGLSDVTKDQ [THEM6]	-0.052
MAASGESGTSGGGGSTEEAFMTFYSEVKQIEKRDSVLTSKNQIERLTRPGSSYFNLNPFEVLQIDPEVTDEEIKKRFRQLSILVHPDKNQDDADRAQKAFEAVDKAYKLLLDQEQKKRALDVIQAGKEYVEHTVKERKKQLKKEGKPTIVEEDDPELFKQAVYKQTMKLFAELEIKRKEREAKEMHERKRQREEEIEAQEKAKREREWQKNFEESRDGRVDSWRNFQANTKGKKEKKNRTFLRPPKVKMEQRE [DNAJC8]	0.145
MAWTKYQLFLAGLMLVTGSINTLSAKWADNFMAEGCGGSKEHSFQHPFLQAVGMFLGEFSCLAAFYLLRCRAAGQSDSSVDPQQPFNPLLFLPPALCDMTGTSLMYVALNMTSASSFQMLRGAVIIFTGLFSVAFLGRRLVLSQWLGILATIAGLVVVGLADLLSKHDSQHKLSEVITGDLLIIMAQIIVAIQMVLEEKFVYKHNVHPLRAVGTEGLFGFVILSLLLVPMYYIPAGSFSGNPRGTLEDALDAFCQVGQQPLIAVALLGNISSIAFFNFAGISVTKELSATTRMVLDSLRTVVIWALSLALGWEAFHALQILGFLILLIGTALYNGLHRPLLGRLSRGRPLAEESEQERLLGGTRTPINDAS [SLC35F6]	-0.0109

Request: API: value(readout= solubility change mitosis (log2), system= HeLa Kyoto, query= MDVNIAPLRAWDDFFPGSDRFARPDFRDISKWNNRVVSNLLYYQTNYLVVAAMMISIVGFLSPFNMILGGIVVVLVFTGFVWAAHNKDVLRRMKKRYPTTFVMVVMLASYFLISMFGGVMVFVFGITFPLLLMFIHASLRLRNLKNKLENKMEGIGLKRTPMGIVLDALEQQEEGINRLTDYISKVKE [ARL6IP5] )
Response: -0.126

Request: Do the same for MRTEAEAAGPPLEPGDFVQLPVPVIQQLYHWDCGLACSRMVLRYLGQLDDSEFERALQKLQLTRSIWTIDLAYLMHHFGVRHRFCTQTLGVDKGYKNQSFYRKHFDTEETRVNQLFAQAKACKVLVEKCTVSVKDIQAHLAQGHVAIVLVNSGVLHCDLCSSPVKYCCFTPSGHHCFCRTPDYQGHFIVLRGYNRATGCIFYNNPAYADPGMCSTSISNFEEARTSYGTDEDILFVYLDS [GUCD1] please
Response: -0.00182

Request: Do the same for MSLALRSELVVDKTKRKKRRELSEEQKQEIKDAFELFDTDKDEAIDYHELKVAMRALGFDVKKADVLKILKDYDREATGKITFEDFNEVVTDWILERDPHEEILKAFKLFDDDDSGKISLRNLRRVARELGENMSDEELRAMIEEFDKDGDGEINQEEFIAIMTGDI [CETN3] please
Response: 0.0873
